- Tested on: colorectal cancer cell lines (e.g. DLD-1, HCT 116, SW620, HCT-15, HCT-8, RKO)
- assay: Cell based assay, cell viability (CellTiter-Glo), colorectal cancer cell lines
- assay_conditions: Homo sapiens, DLD-1, 72 hours treatment, read-out: IC50, colorectal cancer cell line DLD-1
pIC50: −log10 of the molar value.
Let's look at some molecules and their measured pIC50.

Please review the entries below; each comes with its answer.
CC(=O)c1c([S+]([O-])c2ccc(Br)cc2)[nH]c2c(Br)ccc(Cl)c2c1=O (centres unmarked) : < 5.70
CC(=O)c1c(SCc2cccc(I)c2)[nH]c2c(Br)ccc(Cl)c2c1=O : < 5.70
CC(=O)c1c([S+]([O-])C(C)c2ccccc2)[nH]c2c(Br)ccc(Cl)c2c1=O (centres unmarked) : < 5.70
CSc1[nH]c2c(Br)ccc(Cl)c2c(=O)c1C(C)=O : < 5.70
CC(=O)c1c(S)[nH]c2c(Br)ccc(Cl)c2c1=O : < 5.70
CC(=O)c1c([S+]([O-])Cc2ccc(S(F)(F)(F)(F)F)cc2)[nH]c2c(Br)ccc(Cl)c2c1=O (centres unmarked) : 6.11
CC(=O)c1c([S+]([O-])Cc2cccc(I)c2)[nH]c2c(Br)ccc(Cl)c2c1=O (centres unmarked) : 5.80

Respond only with pIC50 recorded for CC(=O)c1c([S+](C)[O-])n(C(=O)c2ccc(Br)cc2)c2c(Br)ccc(Cl)c2c1=O (centres unmarked) 6.06

====

- System: prostate cancer cell lines (e.g. DU145/TXR)
- assay: Cell based assay, cell viability (CellTiter-Glo), prostate cancer cell lines
- assay_conditions: Homo sapiens, CWR22 cells, 72 hours treatment, final concentration 0 to 2 μM, read-out: IC50, prostate cancer cell line CWR22
readout_kind: IC50

Please review the entries below; each comes with its answer.
COc1cccc2[nH]c([S+]([O-])Cc3ccc(S(F)(F)(F)(F)F)cc3)c(C(C)=O)c(=O)c12 (stereo not shown) [Compound 93] : > 2000 nM
CC(=O)c1c([S+]([O-])Cc2ccc(N)nc2)[nH]c2c(Br)ccc(Cl)c2c1=O (stereo not shown) [Compound 100] : > 2000 nM
CC(=O)c1c([S+](C)[O-])n(S(=O)(=O)C(F)(F)F)c2c(Br)ccc(Cl)c2c1=O (stereo not shown) [Compound 36] : > 2000 nM
CC(=O)c1c(Sc2ccccc2)[nH]c2c(Br)ccc(Cl)c2c1=O [Compound 12] : > 2000 nM
COc1cccc2[nH]c(SCc3ccc(S(F)(F)(F)(F)F)cc3)c(C(C)=O)c(=O)c12 [Compound 92] : > 2000 nM

Respond only with IC50 recorded for CC(=O)c1c([S+]([O-])c2ccccc2)[nH]c2c(Br)ccc(Cl)c2c1=O (stereo not shown) [Compound 13] > 2000 nM

Respond only with IC50 recorded for CC(=O)c1c([S+]([O-])Cc2ccccc2C#N)[nH]c2c(Br)ccc(Cl)c2c1=O (stereo not shown) [Compound 58] 1200 nM

Respond only with IC50 recorded for CC(=O)c1c([S+]([O-])Cc2ccc(NS(C)(=O)=O)cc2)[nH]c2c(Br)ccc(Cl)c2c1=O (stereo not shown) [Compound 103] > 2000 nM

Respond only with IC50 recorded for CC(=O)c1c(SCc2cc(F)cc(F)c2)[nH]c2c(Br)ccc(Cl)c2c1=O [Compound 45] > 2000 nM

Respond only with IC50 recorded for CC(=O)c1c(SCc2cccc(F)c2)[nH]c2c(Br)ccc(Cl)c2c1=O [Compound 49] > 2000 nM

Respond only with IC50 recorded for CC(=O)c1c([S+]([O-])Cc2ccc(Cl)cc2)[nH]c2c(Br)ccc(Cl)c2c1=O (stereo not shown) [Compound 11] > 2000 nM

Respond only with IC50 recorded for CC(=O)c1c([S+]([O-])Cc2ccc(S(F)(F)(F)(F)F)cc2)[nH]c2c(Br)ccc(Cl)c2c1=O (stereo not shown) [Compound 68] 1620 nM

Respond only with IC50 recorded for CC(=O)c1c([S+]([O-])Cc2cc(F)cc(S(F)(F)(F)(F)F)c2)[nH]c2c(Br)ccc(Cl)c2c1=O (stereo not shown) [Compound 76] > 2000 nM

Respond only with IC50 recorded for Cc1cc(C[S+]([O-])c2[nH]c3c(Br)ccc(Cl)c3c(=O)c2C(=O)C(C)C)no1 (stereo not shown) [Compound 95] 1080 nM

Respond only with IC50 recorded for Cc1cc(C[S+]([O-])c2[nH]c3c(Cl)ccc(Cl)c3c(=O)c2C(=O)C2CC2)no1 (stereo not shown) [Compound 97] 1480 nM

Respond only with IC50 recorded for CC(=O)c1c(S/C=C\C(=O)O)[nH]c2c(Br)ccc(Cl)c2c1=O [Compound 67] > 2000 nM
